system: RXF 393 renal; experiment: NCI tumour cell line growth inhibition, 48 h
MEASUREMENT_TYPE: log10(TGI) (log10 of the value in µM)

COMPOUND: Cc1cc(Cl)cc2c1NC(=O)C2(O)C(C)C(=O)c1ccc(Cl)cc1 (centres undefined)
log10(TGI): 1.95
//
COMPOUND: COC1=CC(c2ccc[nH]2)=N/C1=C\c1ccc[nH]1
log10(TGI): 0.43
//
COMPOUND: NS(=O)(=O)c1ccc(CNc2nc(-c3cccs3)nc3ccc(I)cc23)cc1
log10(TGI): 1.64
//
COMPOUND: CC1=C(C(=O)NCc2ccccc2)C(c2ccccc2[N+](=O)[O-])C(C(=O)NCc2ccccc2)=C(C)N1
log10(TGI): 1.37
//
COMPOUND: COc1cc2nc(Nc3cccc(F)c3)nc(Nc3cc(C)[nH]n3)c2cc1OC
log10(TGI): 0.51
//
COMPOUND: Cc1cc(O)cc2c1O[C@@]1(C)CCC3[C@@]4(C)CC[C@H](O)C(C)(C)C4CC[C@@]3(C)[C@H]1C2 (some centres undefined)
log10(TGI): 1.12
//
COMPOUND: C[C@@H]1C=C2C(=O)O[C@@H]3CC[C@H](C1)[C@]23O
log10(TGI): 0.90
//
COMPOUND: CC(=O)O[C@H]1C(=O)[C@@]2(C)C(C(OC(=O)c3ccccc3)[C@]3(O)CC(OC(=O)C(O)C(NC(=O)c4ccc(C)cc4)c4ccccc4)C(C)=C1C3(C)C)[C@]1(OC(C)=O)CO[C@@H]1C[C@@H]2O (some centres undefined)
log10(TGI): -0.84
//
COMPOUND: COc1ccc2c(c1)CCC1C2CC[C@]2(C)/C(=N/OC(=O)Cc3ccccc3)CCC12 (some centres undefined)
log10(TGI): 1.68
//
COMPOUND: CC1C=CC(=O)C(n2cc(F)c(=O)[nH]c2=O)O1 (centres undefined)
log10(TGI): 1.58
//
COMPOUND: O=C(/C=C\c1ccc(Cl)cc1Cl)c1cccs1
log10(TGI): 1.65
//
COMPOUND: CCN(CC)CCCNc1nc2ccccc2c2[nH]c3ccc(OC)cc3c12
log10(TGI): 0.47
//
COMPOUND: C[C@H]1[C@H](C)CC[C@]2(C(=O)O)CC[C@]3(C)C(=CC[C@@H]4[C@@]5(C)C/C(=C/c6ccco6)C(=O)C(C)(C)[C@@H]5CC[C@]43C)[C@H]12
log10(TGI): 1.21
//
COMPOUND: CN(C)CCNC(=O)c1cccc2[nH]c(-c3ccccc3)nc12
log10(TGI): 1.52
//
COMPOUND: Cn1c2ccccc2c(=NNc2ccccc2C(=O)O)c2ccccc21
log10(TGI): 1.52
//
COMPOUND: COc1cc(/C=C2\COc3ccc(O)c(O)c3C2=O)cc(OC)c1
log10(TGI): 0.48
//
COMPOUND: NS(=O)(=O)c1ccc(CCN=C=S)cc1
log10(TGI): 0.50
//
COMPOUND: N#CC(c1cc2c(cc1Br)OCO2)N1CCOCC1 (centres undefined)
log10(TGI): 1.71
//
COMPOUND: CCCCn1c2c(n(CCCC)c1=S)-c1c(n(CCCC)c(=S)n1CCCC)SSSS2
log10(TGI): 1.16
//
COMPOUND: CC(C)(C)C(=O)C1CC(=O)c2ccccc2C1=O (centres undefined)
log10(TGI): 1.91

* * *

system: LOX IMVI melanoma; experiment: NCI tumour cell line growth inhibition, 48 h
Here the recorded TGI is given for each entry.

COMPOUND: O=C(CCc1cccc(O)c1)NCCc1ccc(O)cc1
TGI: > 100 µM
--
COMPOUND: CNC(=O)CCCN(C)C(=O)CCCCC(=O)N(C)C
TGI: > 100 µM
--
COMPOUND: OC1CN2CCS[C@H]2C(O)C1O (some centres not stated)
TGI: > 100 µM
--
COMPOUND: CC(C)(C)c1ccc(C(O)c2ccc(C(C)(C)C)cc2)cc1
TGI: 30.8 µM
--
COMPOUND: CC(C)=CC(=O)Cc1nc2cc(C)c(C)cc2[nH]c1=O
TGI: > 100 µM
--
COMPOUND: O=C1CCC2(CC1)SCCCS2
TGI: > 100 µM
--
COMPOUND: COc1ccc2oc(C(=O)N3CC(CCl)c4ccc([N+](=O)[O-])cc43)cc2c1 (configuration not stated)
TGI: > 100 µM
--
COMPOUND: O=C1C(=O)C(Br)(Br)C(Br)=C1Br
TGI: 31.9 µM
--
COMPOUND: O=S(CCCl)c1c2ccccc2nc2ccccc12 (configuration not stated)
TGI: > 100 µM
--
COMPOUND: CCCCCCCC/C=C\CCCCCCCC(=O)NCCN(CCN)C(=O)CCCCCCC/C=C\CCCCCCCC
TGI: > 100 µM
--
COMPOUND: Cn1cc(C2=C(c3cn(CCN)c4ccccc34)C(=O)NC2=O)c2ccccc21
TGI: > 22.8 µM
--
COMPOUND: O=C1C=C(NCCc2cc(Br)c(O)c(Br)c2)C(=O)c2ncccc21
TGI: 4.97 µM

* * *

test system: LOX IMVI melanoma; assay: NCI tumour cell line growth inhibition, 48 h
Catalogue of TGI readings, one per entry.

COMPOUND: NCCNC(=S)S
TGI: > 100 µM

COMPOUND: CCCN(CCC)c1ccc(/C=N/NC(=O)c2cccnc2)c(Cl)c1
TGI: 24.9 µM

COMPOUND: CC(=O)Oc1cc2c(cc1OC(C)=O)[C@H]1CC[C@]3(C)[C@@H](OC(C)=O)CC[C@H]3[C@@H]1CC2
TGI: 16.6 µM

COMPOUND: CC(CO)C1=CC(C#CCOCc2ccccc2)N(C(=O)Oc2ccccc2)c2ccccc21 (configuration not stated)
TGI: > 100 µM

COMPOUND: Cc1ccc(C)c(NC(=O)CC/C(=N\NC(=O)C(N)=O)C(C)C(=O)c2ccc(O)cc2)c1 (configuration not stated)
TGI: > 100 µM

COMPOUND: CCOC(=O)c1cn(Cc2ccccc2)c(=O)n1Cc1ccccc1
TGI: > 100 µM

COMPOUND: COc1ccc2c(c1)CC[C@@H]1[C@@H]2CC[C@]2(C)C(c3ccco3)=C(C=O)C[C@@H]12
TGI: 23.8 µM

COMPOUND: N/N=C1\CCCc2c1no[n+]2[O-]
TGI: > 100 µM

COMPOUND: O=C(NC1=NC2C=CC([N+](=O)[O-])=CC2S1)C(=O)Nn1c(=S)[nH]c2ccccc2c1=O (configuration not stated)
TGI: > 100 µM

COMPOUND: CC(NC(=O)OC(C)(C)C)C(=O)C(N)=O (configuration not stated)
TGI: > 100 µM

COMPOUND: COC(=O)[C@]1(C)CCC[C@@]2(C)C1CCC1=CC3(C(C)C)CCC12OO3 (some centres not stated)
TGI: > 100 µM

COMPOUND: O=C(COc1ccccc1)NS(=O)(=O)c1ccccc1
TGI: > 100 µM

COMPOUND: O=C(CCCl)NNC1=NCCN1
TGI: > 100 µM

COMPOUND: Cn1c(-c2ccc(/C=N\N3CCN(/N=C/c4ccc(-c5c[n+]6ccsc6n5C)cc4)CC3)cc2)c[n+]2ccsc12
TGI: > 100 µM

COMPOUND: CCOC(=O)CCC(NC(=O)Cc1ccc(Oc2nc3ccccc3nc2-c2cccs2)cc1)C(=O)OCC (configuration not stated)
TGI: > 100 µM

COMPOUND: CCOC(=O)c1sc(=S)c2c(C(=O)OCC)c(C(=O)OCC)sc2c1C(=O)OCC
TGI: 27.9 µM

COMPOUND: O=C(OCC1OC(c2nn[nH]n2)C(OC(=O)c2ccccc2)C1OC(=O)c1ccccc1)c1ccccc1 (configuration not stated)
TGI: > 100 µM

COMPOUND: O=c1oc2ccc3ccccc3c2cc1-c1nc2ccccc2o1
TGI: 32.8 µM

COMPOUND: CCCCCCCC[N+](C)(CCCCCCCC)CCCCCCCC
TGI: 0.709 µM

COMPOUND: ClC1=C(Cc2ccccc2)Cc2ccc3c(c21)CCC3
TGI: 32.9 µM

COMPOUND: N#CC1=C(N)OC(c2ccc([N+](=O)[O-])cc2)C1(C#N)C#N (configuration not stated)
TGI: 21.6 µM

COMPOUND: CC(=O)Oc1ccccc1C(=O)O
TGI: > 100 µM

COMPOUND: CCN(CC)CCCNc1nc2ccccc2c2[nH]c3ccc(OC)cc3c12
TGI: 2.9 µM

COMPOUND: COC(=O)C(Cl)=C1CC1
TGI: 59.6 µM

COMPOUND: CN(/N=C/C=N/N(C)C1=NCCCCN1)C1=NCCCCN1
TGI: > 100 µM

COMPOUND: NCCCN1CCN(CC(=O)O)CCN(CCCN)CCN(CC(=O)O)CC1
TGI: > 100 µM

COMPOUND: COc1cc(C(=O)c2cc3c(cc2C)OCO3)cc(OC)c1OC
TGI: > 100 µM

COMPOUND: C[C@@]12CCC(=O)C=C1CC[C@H]1C2=CC[C@]2(C)C1CC[C@@]2(C)O (some centres not stated)
TGI: > 100 µM

COMPOUND: C1=Cc2nc1c(-c1ccncc1)c1ccc([n-]1)c(-c1ccncc1)c1nc(c(-c3ccncc3)c3ccc([n-]3)c2-c2ccncc2)C=C1.[Zn+2]
TGI: > 100 µM

COMPOUND: O=c1[nH]nc(Cc2ccc(Cl)cc2)n1/N=C\CC/C=N\n1c(Cc2ccc(Cl)cc2)n[nH]c1=O
TGI: > 100 µM

COMPOUND: COC(=O)C1(Cc2ccccc2)Cc2ccc3c(c2C1=O)CCC3 (configuration not stated)
TGI: > 64 µM

COMPOUND: CCOC(=O)NC(NC(C)CC)(C(F)(F)F)C(F)(F)F (configuration not stated)
TGI: > 100 µM

COMPOUND: COc1ccc(/C=C/C(=O)N[C@@H]2C(=O)N3[C@@H]2SC(C)(C)[C@@H]3C(=O)O)cc1
TGI: > 100 µM

COMPOUND: NC1=N/C(=C2/CCNC(=O)c3[nH]c(Br)cc32)C(=O)N1
TGI: > 62.1 µM

COMPOUND: COc1cc2nc(Nc3cccc(F)c3)nc(Nc3cc(C)[nH]n3)c2cc1OC
TGI: 3.11 µM

COMPOUND: CC1OC(OCC2COC(O)(Oc3c(-c4ccc(O)c(O)c4)oc4cc(O)cc(O)c4c3=O)C(O)C2O)C(O)C(O)C1O (configuration not stated)
TGI: > 100 µM

COMPOUND: CC(C)NC(=O)OCc1c(COC(=O)NC(C)C)n(C)c2c1ccc1ccccc12
TGI: 2.6 µM

COMPOUND: CCCCCCCCCCCCCCCCOCC(COP(=O)([O-])OCC[N+](C)(C)C)OCCCCCCCCCCCCCCCC (configuration not stated)
TGI: > 100 µM

COMPOUND: Cn1c2ccccc2c(=NNc2ccccc2C(=O)O)c2ccccc21
TGI: 25.6 µM

COMPOUND: O=c1cnn2c(n1)sc1ccc3ccccc3c12
TGI: > 100 µM

COMPOUND: Cc1c2c(n(Cc3ccccn3)c1C)NN=C(C#N)S2(=O)=O
TGI: > 100 µM

COMPOUND: Cc1[nH]c(=O)[nH]c(=O)c1CO
TGI: > 100 µM
